# System: HOP-62 complex spheroids with HUVEC/MSC, viability
# Protocol summary: Anticancer human tumor HOP-62 cell line growth inhibition [RAS]; active means viability on the fitted dose curve at most 10% of control; inactive means the rest;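 further: spheroids exposed to agents for seven days before readout; 100% = DMSO vehicle control viability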
# Experimental setup: second compound 0.0316 µM; first compound 0.316 µM
Please state which outcome applies, choosing from active, inactive

>  <Compound>
CC1(O)CCCC1n1c(=O)c(C(F)F)cc2cnc(NC3CCN(S(C)(=O)=O)CC3)nc21 (stereo not given) + C=CC(=O)N1CCN(c2nc(OCC3CCCN3C)nc3c(F)c(-c4nc(N)cc(C)c4C(F)(F)F)c(Cl)cc23)C(C)C1

>  <Label value>
inactive

$$$$
>  <Compound>
NC1c2ccccc2OC12CCN(c1cnc3c(N4CCCc5ncccc54)n[nH]c3n1)CC2 (stereo not given) + C#Cc1c(F)ccc2cc(O)cc(-c3ncc4c(N5CC6CCC(C5)N6)nc(OCC56CCCN5CC(F)C6)nc4c3F)c12

>  <Label value>
inactive

$$$$
>  <Compound>
C=CC(=O)Nc1cc(Nc2nccc(-c3cn(C)c4ccccc34)n2)c(OC)cc1N(C)CCN(C)C + C#Cc1c(F)ccc2cc(O)cc(-c3ncc4c(N5CC6CCC(C5)N6)nc(OCC56CCCN5CC(F)C6)nc4c3F)c12

>  <Label value>
inactive

$$$$
>  <Compound>
Nc1ccn(C2OC(CO)C(O)C2(F)F)c(=O)n1 (stereo not given) + C#Cc1c(F)ccc2cc(O)cc(-c3ncc4c(N5CC6CCC(C5)N6)nc(OCC56CCCN5CC(F)C6)nc4c3F)c12

>  <Label value>
active

$$$$
>  <Compound>
CC1(O)CCCC1n1c(=O)c(C(F)F)cc2cnc(NC3CCN(S(C)(=O)=O)CC3)nc21 (stereo not given) + C#Cc1c(F)ccc2cc(O)cc(-c3ncc4c(N5CC6CCC(C5)N6)nc(OCC56CCCN5CC(F)C6)nc4c3F)c12

>  <Label value>
inactive

$$$$
>  <Compound>
NC1c2ccccc2OC12CCN(c1cnc3c(N4CCCc5ncccc54)n[nH]c3n1)CC2 (stereo not given) + C=CC(=O)N1CCN(c2nc(OCC3CCCN3C)nc3c(F)c(-c4nc(N)cc(C)c4C(F)(F)F)c(Cl)cc23)C(C)C1

>  <Label value>
inactive

$$$$
>  <Compound>
CC(=O)OC12COC1CC(O)C1(C)C(=O)C(O)C3=C(C)C(OC(=O)C(O)C(NC(=O)OC(C)(C)C)c4ccccc4)CC(O)(C(OC(=O)c4ccccc4)C21)C3(C)C (stereo not given) + C=CC(=O)N1CCN(c2nc(OCC3CCCN3C)nc3c(F)c(-c4nc(N)cc(C)c4C(F)(F)F)c(Cl)cc23)C(C)C1

>  <Label value>
inactive

$$$$
>  <Compound>
CCN1CCN(Cc2ccc(Nc3ncc(F)c(-c4cc(F)c5nc(C)n(C(C)C)c5c4)n3)nc2)CC1 + C=CC(=O)N1CCN(c2nc(OCC3CCCN3C)nc3c(F)c(-c4nc(N)cc(C)c4C(F)(F)F)c(Cl)cc23)C(C)C1

>  <Label value>
inactive

$$$$

// query Assay outcome for CC(Nc1ccc2c(c1)OCCn1cc(N3C(=O)OCC3C(F)F)nc1-2)C(N)=O (stereo not given) + C#Cc1c(F)ccc2cc(O)cc(-c3ncc4c(N5CC6CCC(C5)N6)nc(OCC56CCCN5CC(F)C6)nc4c3F)c12 : what was it?
// result inactive

// query Please share the test call associated with C=CC(=O)Nc1cc(Nc2nccc(-c3cn(C)c4ccccc34)n2)c(OC)cc1N(C)CCN(C)C + C=CC(=O)N1CCN(c2nc(OCC3CCCN3C)nc3c(F)c(-c4nc(N)cc(C)c4C(F)(F)F)c(Cl)cc23)C(C)C1 .
// result inactive

====

Reported viability, T/C is given for each of the following compounds.
# Test system: HOP-62 complex spheroids with HUVEC/MSC, viability
# Protocol summary: Anticancer human tumor HOP-62 cell line growth inhibition [RAS];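 further: spheroids exposed to agents for seven days before readout; 100% = DMSO vehicle control viability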
# Experimental setup: second compound 3.16 µM; first compound 3.16 µM; hits give low values
Record the value in %, omitting the unit from your answer.

>  <Compound>
Cc1nc(N2CCC3(CC2)COC(C)C3N)c(CO)nc1Sc1ccnc(N)c1Cl (stereo not given) + C#Cc1c(F)ccc2cc(O)cc(-c3ncc4c(N5CC6CCC(C5)N6)nc(OCC56CCCN5CC(F)C6)nc4c3F)c12

>  <Measured target>
HOP-62 complex spheroids with HUVEC/MSC, viability

>  <Measured>
16.8

$$$$
>  <Compound>
CC(Nc1ccc2c(c1)OCCn1cc(N3C(=O)OCC3C(F)F)nc1-2)C(N)=O (stereo not given) + C#Cc1c(F)ccc2cc(O)cc(-c3ncc4c(N5CC6CCC(C5)N6)nc(OCC56CCCN5CC(F)C6)nc4c3F)c12

>  <Measured target>
HOP-62 complex spheroids with HUVEC/MSC, viability

>  <Measured>
22.3

$$$$
>  <Compound>
CC(=O)OC12COC1CC(O)C1(C)C(=O)C(O)C3=C(C)C(OC(=O)C(O)C(NC(=O)OC(C)(C)C)c4ccccc4)CC(O)(C(OC(=O)c4ccccc4)C21)C3(C)C (stereo not given) + C#Cc1c(F)ccc2cc(O)cc(-c3ncc4c(N5CC6CCC(C5)N6)nc(OCC56CCCN5CC(F)C6)nc4c3F)c12

>  <Measured target>
HOP-62 complex spheroids with HUVEC/MSC, viability

>  <Measured>
17.8

$$$$
>  <Compound>
C[C@@H](NC(=O)c1ncnc(N)c1Cl)c1ncc(C(=O)Nc2cc(C(F)(F)F)c(Cl)cn2)s1 + C#Cc1c(F)ccc2cc(O)cc(-c3ncc4c(N5CC6CCC(C5)N6)nc(OCC56CCCN5CC(F)C6)nc4c3F)c12

>  <Measured target>
HOP-62 complex spheroids with HUVEC/MSC, viability

>  <Measured>
73.4

$$$$

# evaluate next
// query Request the reported viability, T/C associated with NC1c2ccccc2OC12CCN(c1cnc3c(N4CCCc5ncccc54)n[nH]c3n1)CC2 (stereo not given) + C#Cc1c(F)ccc2cc(O)cc(-c3ncc4c(N5CC6CCC(C5)N6)nc(OCC56CCCN5CC(F)C6)nc4c3F)c12
// result 10.8

====

# System: HOP-62 complex spheroids with HUVEC/MSC, viability
# Protocol summary: Anticancer human tumor HOP-62 cell line growth inhibition [RAS];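 further: spheroids exposed to agents for seven days before readout; 100% = DMSO vehicle control viability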
# Experimental setup: second compound 0.1 µM; first compound 0.316 µM; hits give low values
Readout type: viability, T/C (%)
Value expressed in %; do not type the unit.

>  <Molecule>
NC1c2ccccc2OC12CCN(c1cnc3c(N4CCCc5ncccc54)n[nH]c3n1)CC2 (configuration not stated) + C=CC(=O)N1CCN(c2nc(OCC3CCCN3C)nc3c(F)c(-c4nc(N)cc(C)c4C(F)(F)F)c(Cl)cc23)C(C)C1

>  <Readout type>
viability, T/C

>  <Result units>
%

>  <Measured>
11

$$$$

// query Endpoint output: viability, T/C of CC(=O)OC12COC1CC(O)C1(C)C(=O)C(O)C3=C(C)C(OC(=O)C(O)C(NC(=O)OC(C)(C)C)c4ccccc4)CC(O)(C(OC(=O)c4ccccc4)C21)C3(C)C (configuration not stated) + C#Cc1c(F)ccc2cc(O)cc(-c3ncc4c(N5CC6CCC(C5)N6)nc(OCC56CCCN5CC(F)C6)nc4c3F)c12 . Value?
// result 17.6

====

# Test system: HOP-62 complex spheroids with HUVEC/MSC, viability
# Protocol summary: Anticancer human tumor HOP-62 cell line growth inhibition [RAS];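 further: spheroids exposed to agents for seven days before readout; 100% = DMSO vehicle control viability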
# Experimental setup: second compound 10 µM; first compound 0.00316 µM; hits give low values
Readout type: viability, T/C (%)
The response must be a number in % with no trailing unit.

Examples from the recorded data:
>  <Compound>
C=CC(=O)Nc1cc(Nc2nccc(-c3cn(C)c4ccccc34)n2)c(OC)cc1N(C)CCN(C)C + C#Cc1c(F)ccc2cc(O)cc(-c3ncc4c(N5CC6CCC(C5)N6)nc(OCC56CCCN5CC(F)C6)nc4c3F)c12

>  <Measured target>
HOP-62 complex spheroids with HUVEC/MSC, viability

>  <Readout type>
viability, T/C

>  <Measured>
47.2

$$$$
>  <Compound>
C=CC(=O)N1CCN(c2nc(OCC3CCCN3C)nc3c(F)c(-c4nc(N)cc(C)c4C(F)(F)F)c(Cl)cc23)C(C)C1 (stereo unspecified) + C#Cc1c(F)ccc2cc(O)cc(-c3ncc4c(N5CC6CCC(C5)N6)nc(OCC56CCCN5CC(F)C6)nc4c3F)c12

>  <Measured target>
HOP-62 complex spheroids with HUVEC/MSC, viability

>  <Readout type>
viability, T/C

>  <Measured>
48

$$$$
>  <Compound>
Nc1ccn(C2OC(CO)C(O)C2(F)F)c(=O)n1 (stereo unspecified) + C#Cc1c(F)ccc2cc(O)cc(-c3ncc4c(N5CC6CCC(C5)N6)nc(OCC56CCCN5CC(F)C6)nc4c3F)c12

>  <Measured target>
HOP-62 complex spheroids with HUVEC/MSC, viability

>  <Readout type>
viability, T/C

>  <Measured>
39.5

$$$$
>  <Compound>
CCN1CCN(Cc2ccc(Nc3ncc(F)c(-c4cc(F)c5nc(C)n(C(C)C)c5c4)n3)nc2)CC1 + C#Cc1c(F)ccc2cc(O)cc(-c3ncc4c(N5CC6CCC(C5)N6)nc(OCC56CCCN5CC(F)C6)nc4c3F)c12

>  <Measured target>
HOP-62 complex spheroids with HUVEC/MSC, viability

>  <Readout type>
viability, T/C

>  <Measured>
46.4

$$$$
>  <Compound>
CC(C)n1nc(-c2ccc3oc(N)nc3c2)c2c(N)ncnc21 + C#Cc1c(F)ccc2cc(O)cc(-c3ncc4c(N5CC6CCC(C5)N6)nc(OCC56CCCN5CC(F)C6)nc4c3F)c12

>  <Measured target>
HOP-62 complex spheroids with HUVEC/MSC, viability

>  <Readout type>
viability, T/C

>  <Measured>
28.2

$$$$

Let's switch to this compound now.
// query State the recorded viability, T/C for this entry: O=C(c1ccc(F)c(F)c1Nc1ccc(I)cc1F)N1CC(O)([C@@H]2CCCCN2)C1 + C#Cc1c(F)ccc2cc(O)cc(-c3ncc4c(N5CC6CCC(C5)N6)nc(OCC56CCCN5CC(F)C6)nc4c3F)c12
// result 46.4
